System: MS2 coat protein
Experiment: apparent KD of MS2 coat protein; designed switch direction (-1 OFF switch, 1 ON switch): -1; higher = weaker reporter binding
Settings: input ligand: none
recorded metric: apparent KD of MS2 coat protein (µM)
Give bare numbers, in µM.

Completed entries (count: 3):
GCAAAUCAUGUAGGAUAUGCGUGGCGAAGCUAUGCAGAAGGACAUGAGGAUCACCCAUGUGCUUCCGUCUGCGUACAGACGGUA [Mat - Exclusion NG 1 - Mod of JL - D18] (Eterna round: R96, puzzle: Exclusion NG 1) :: 0.0913
ACUUAUUGAGGAUAUACAGAUUAUUACAUGAGGAUCACCCAUGUUCUUCAAUGUAUAUAUGUAGAAGGCAGAAGAU [Mat - Exclusion 5 - JL Mod - D15] (Eterna round: R97, puzzle: Exclusion 5) :: 0.0575
AAGUACCGUCACGAUAGUGAUGGUACAACAAGCAUGUAAACAUGAGGAUCACCCAUGUCCUCAAUUGCUCGUCUUAU [Sensor 3 - 68] (Eterna round: R96, puzzle: Sensor v3, turn-off variant 2) :: 1.06

Pending sequence:
Data request: Lab note: need apparent KD of MS2 coat protein for GCAAGAAUAGGAUAUACACCAUGUCAGCUUCUAUACAACGCACAUGAGGAUCACCCAUGUAGAAGGGUUCUCUG [Exclusion-2-#10] (Eterna round: R97, puzzle: Exclusion 2) on MS2 coat protein, anyone have it?
Data returned: 0.365
